Target: DR1GrpE: DR1 α chain 1–181 and β chain 1–190 fused C-terminally to GrpE, not biotinylated (human)
Test: AlphaScreen or HTRF
Readout Name: pIC50
Give bare numbers, as −log10 of the molar value.

Illustrative cases are given below, each with its answer.
YLFFYRKSV [TERT572Y peptide …]
5.37
IQMLKNGKKIPKVEMS [Murine β2m peptide …]
5.91

Please look at the following binder next.
[Q] Please give the measured pIC50 for this binder: FLYGALLLA [MBP peptide …]
[A] 5.41
